Target: T1, human high affinity trimeric IL-2 receptor (CD25/CD122/CD132) (human, UniProt P01589 22-272; P14784 27-551; P31785 23-369)
T1 sequence 1: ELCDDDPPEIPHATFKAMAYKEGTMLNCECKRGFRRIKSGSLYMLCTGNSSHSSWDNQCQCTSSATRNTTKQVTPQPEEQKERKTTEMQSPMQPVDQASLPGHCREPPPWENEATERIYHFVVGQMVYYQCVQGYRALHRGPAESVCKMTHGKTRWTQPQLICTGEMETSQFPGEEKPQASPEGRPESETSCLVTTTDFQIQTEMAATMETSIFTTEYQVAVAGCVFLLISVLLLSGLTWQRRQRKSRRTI
T1 sequence 2: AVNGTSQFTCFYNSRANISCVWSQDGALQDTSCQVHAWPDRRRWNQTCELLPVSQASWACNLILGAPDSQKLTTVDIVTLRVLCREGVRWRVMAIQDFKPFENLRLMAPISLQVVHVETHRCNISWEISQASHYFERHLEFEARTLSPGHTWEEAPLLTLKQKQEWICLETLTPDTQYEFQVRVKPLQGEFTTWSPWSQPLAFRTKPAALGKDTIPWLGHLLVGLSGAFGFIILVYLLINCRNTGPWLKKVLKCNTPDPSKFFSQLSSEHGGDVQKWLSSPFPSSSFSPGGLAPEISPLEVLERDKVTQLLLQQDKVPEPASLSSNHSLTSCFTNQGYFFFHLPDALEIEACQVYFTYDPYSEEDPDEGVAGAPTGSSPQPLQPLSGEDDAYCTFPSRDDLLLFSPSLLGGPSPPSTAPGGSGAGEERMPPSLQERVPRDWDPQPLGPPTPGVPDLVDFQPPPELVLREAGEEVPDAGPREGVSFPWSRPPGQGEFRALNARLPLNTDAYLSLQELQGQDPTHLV
T1 sequence 3: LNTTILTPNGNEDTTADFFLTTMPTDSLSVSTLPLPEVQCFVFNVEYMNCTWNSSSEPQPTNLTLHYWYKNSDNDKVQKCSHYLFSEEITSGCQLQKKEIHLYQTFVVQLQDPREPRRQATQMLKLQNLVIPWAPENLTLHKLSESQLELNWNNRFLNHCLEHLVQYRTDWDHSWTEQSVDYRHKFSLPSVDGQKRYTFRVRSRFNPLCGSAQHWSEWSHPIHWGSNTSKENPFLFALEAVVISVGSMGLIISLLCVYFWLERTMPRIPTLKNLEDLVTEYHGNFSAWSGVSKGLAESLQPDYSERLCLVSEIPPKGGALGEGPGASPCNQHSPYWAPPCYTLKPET
Experiment: cell-based or functional assay
assay.endpoint: pSTAT5 ratio YT CD25/YT, dilution factor 128, lower table
# answer = number (no unit)

Known results for binders:
RTH (ligand) cytokine: APTSSSTKKTQLQLEHLRLDLTMILNGINNYKNPKLTRMLTFKFYMPKKATELKHLQCLEEELKPLEEVLNLAQSKNFHLRPRDLISNINVIVLELKGSETTFMCEYADETATIVEFLNRWITFCHSIISTLT :: 14.3
RVH (ligand) cytokine: APTSSSTKKTQLQLEHLRLDLVMILNGINNYKNPKLTRMLTFKFYMPKKATELKHLQCLEEELKPLEEVLNLAQSKNFHLRPRDLISNINVIVLELKGSETTFMCEYADETATIVEFLNRWITFCHSIISTLT :: 8
RWH (ligand) cytokine: APTSSSTKKTQLQLEHLRLDLWMILNGINNYKNPKLTRMLTFKFYMPKKATELKHLQCLEEELKPLEEVLNLAQSKNFHLRPRDLISNINVIVLELKGSETTFMCEYADETATIVEFLNRWITFCHSIISTLT :: 9.1

// query Could you please provide reported pSTAT5 ratio YT CD25/YT, dilution factor 128, lower table for YEH (ligand) cytokine: APTSSSTKKTQLQLEHLYLDLEMILNGINNYKNPKLTRMLTFKFYMPKKATELKHLQCLEEELKPLEEVLNLAQSKNFHLRPRDLISNINVIVLELKGSETTFMCEYADETATIVEFLNRWITFCHSIISTLT ? Thanks!
// result 3.4
